target.desc: UniProt:Q4FZB7
Sequence (Q4FZB7 whole entry): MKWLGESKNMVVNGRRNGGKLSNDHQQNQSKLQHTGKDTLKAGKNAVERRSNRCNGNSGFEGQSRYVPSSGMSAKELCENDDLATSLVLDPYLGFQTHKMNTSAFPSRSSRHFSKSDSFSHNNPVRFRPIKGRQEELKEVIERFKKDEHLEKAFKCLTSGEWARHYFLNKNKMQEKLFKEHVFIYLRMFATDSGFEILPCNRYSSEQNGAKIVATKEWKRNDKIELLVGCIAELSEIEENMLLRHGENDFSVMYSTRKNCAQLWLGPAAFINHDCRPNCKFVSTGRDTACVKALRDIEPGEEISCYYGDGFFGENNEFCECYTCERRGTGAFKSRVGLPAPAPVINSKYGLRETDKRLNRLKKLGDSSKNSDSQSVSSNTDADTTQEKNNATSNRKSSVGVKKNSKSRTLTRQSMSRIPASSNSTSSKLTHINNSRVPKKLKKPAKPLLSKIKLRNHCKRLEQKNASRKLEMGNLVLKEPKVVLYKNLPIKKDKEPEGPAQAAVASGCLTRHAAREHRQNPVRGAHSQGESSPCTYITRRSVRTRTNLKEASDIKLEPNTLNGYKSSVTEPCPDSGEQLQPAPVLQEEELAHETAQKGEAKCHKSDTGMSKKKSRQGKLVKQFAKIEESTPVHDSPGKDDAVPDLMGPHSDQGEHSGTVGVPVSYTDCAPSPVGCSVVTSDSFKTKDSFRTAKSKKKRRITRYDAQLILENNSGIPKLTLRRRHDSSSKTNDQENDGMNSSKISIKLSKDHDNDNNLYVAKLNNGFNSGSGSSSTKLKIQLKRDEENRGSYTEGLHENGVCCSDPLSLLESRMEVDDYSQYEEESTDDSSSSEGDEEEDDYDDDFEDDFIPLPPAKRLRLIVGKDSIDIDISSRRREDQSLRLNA
assay.details: Inhibition of human SUV420H1 transcript variant 2 using Nucleosomes and [3H]SAM as substrate incubated for 30 mins to 1 hr by HotSpot kinase assay
readout.kind: IC50 (nM)
One number for each entry, in nM.

Returns the measured IC50 for the input molecule. Input: `Cc1cc(C)c(CNC(=O)c2cc(Cl)c3c(c2C)O[C@@](C)([C@H]2CC[C@H](N(C)C)CC2)O3)c(=O)[nH]1`
1000
